# ASSAY PROTOCOL: Pharmacokinetic analyses (plasma, non-compartmental)
# Type: in vivo, human (patients)
# APPLIED CONDITIONS: human, plasma, oral, 100 mg, Erlotinib D14; DL1 erlotinib 100 mg daily alone; N=6
MEASURED PARAMETER: AUC(0-t)

Field request: AUC(0-t) | item: C#Cc1cccc(Nc2ncnc3cc(OCCOC)c(OCCOC)cc23)c1
30100 ng·h/mL

* * *

# ASSAY PROTOCOL: Pharmacokinetic analyses (plasma, non-compartmental)
# Assay type: in vivo, human (patients)
# APPLIED CONDITIONS: human, plasma, oral, Foretinib D28; DL3 foretinib 45 mg + erlotinib 150 mg daily; N=6
MEASURED PARAMETER: clearance (mL/min)
Answers are plain numbers, in mL/min.

Given COc1cc2c(Oc3ccc(NC(=O)C4(C(=O)Nc5ccc(F)cc5)CC4)cc3F)ccnc2cc1OCCCN1CCOCC1 [foretinib] , state its recorded clearance.
829
